Conditions: 298.15 K; 101.33 kPa; Liquid; Sing-around technique in a fixed-path interferometer
measured_property: speed of sound (m/s)
Field: numeric (m/s). Do not append units.

Here's what some known entries look like.
                                  compound  measured_property  uom  endpoint_value
0                      CCCCCCCCCC [decane]     speed of sound  m/s          1232.5
1          CC(C)C(C)C [2,3-dimethylbutane]     speed of sound  m/s          1047.1
2  CC(C)CC(C)(C)C [2,2,4-trimethylpentane]     speed of sound  m/s          1082.6
3               CCCC(C)C [2-methylpentane]     speed of sound  m/s          1082.6
4         CN1CCCC1=O [N-methylpyrrolidone]     speed of sound  m/s            1545

Query :: For the compound shown here, CCCCCC [hexane] , give the reported speed of sound.
Result :: 1077.6

Query :: May I ask what speed of sound has been recorded for CCC(C)CC [3-methylpentane] ?
Result :: 1072.1

Query :: Which value of speed of sound has been reported for O=C1CCCN1C1CCCCC1 [N-cyclohexylpyrrolidinone] in the records?
Result :: 1555.7

Query :: Requested field: speed of sound. Item: CCC(C)(C)C [2,2-dimethylbutane]
Result :: 999.69

Query :: Need speed of sound of C1CCCCC1 [cyclohexane] , thanks.
Result :: 1254.9

Query :: Param item = C1CCCCCCC1 [cyclooctane] ; retrieve measured speed of sound.
Result :: 1387.8

Query :: Entry under review: CCCCCCCC [octane] . Reported speed of sound?
Result :: 1170.4

###

Settings: 298.15 K; 101.33 kPa; Liquid; Pycnometric method
Classes are defined on mass density with ranges low interval = under 700 kg/m3, middle interval = from 700 kg/m3 up to 800 kg/m3, high interval = 800 kg/m3 and over

Example entries and their recorded answers appear below.
   sample_smiles  qualitative_label
0     CCCCCCCCCC    middle interval
1     CCC(C)(C)C       low interval

Query :: Which bin, given its mass density, does `O=C1CCCN1C1CCCCC1` occupy?
Result :: high interval

Query :: Band of `CCCCCC` ?
Result :: low interval

Query :: Record `C1CCCCC1` — which class?
Result :: middle interval

Query :: Which band does `CN1CCCC1=O` fall in?
Result :: high interval

Query :: Sort `C1CCCCCCC1` into one of the categories.
Result :: high interval

###

Test: refractive index (Na D-line) (dimensionless)
Details: 298.15 K; 101.33 kPa; Liquid; Standard Abbe refractometry
measured_property: refractive index
Respond using a number only.

// solved cases for refractive index follow
>>> print(df.to_string())
   sample_smiles  measured_property  endpoint_value
0     C1CCCCCCC1   refractive index         1.45624
1         CCCCCC   refractive index         1.37237
2       CCCC(C)C   refractive index         1.36893
3       CCC(C)CC   refractive index         1.37399
4     CCC(C)(C)C   refractive index         1.36608

Query :: May I ask what refractive index has been recorded for `CCCCCCCC` ?
Result :: 1.39538

Query :: Quick check: refractive index of `CN1CCCC1=O` ?
Result :: 1.46876

Query :: If you can, please state the reported refractive index value of `O=C1CCCN1C1CCCCC1` .
Result :: 1.4975

Query :: Given `O` , state its recorded refractive index.
Result :: 1.3325

Query :: What value of measured refractive index is listed for `C1CCCCC1` ?
Result :: 1.42378

Query :: // query refractive index value for entry `CC(C)CC(C)(C)C`
Result :: 1.38917

Query :: I have this compound here, `CCCCCCCCCC` , and I need its recorded refractive index.
Result :: 1.4099

Query :: Which refractive index value belongs to `CC(C)C(C)C` ?
Result :: 1.37275

###

Settings: 298.15 K; 101.33 kPa; Liquid; Pycnometric method
measured_property: mass density (kg/m3)
Reply with just the number (in kg/m3).

Recorded mass density, per entry:
>>> print(df.to_string())
    sample_smiles  endpoint_value
0        CCCC(C)C         648.614
1        CCC(C)CC         659.806
2        CCCCCCCC         698.638
3  CC(C)CC(C)(C)C         687.817

--- query ---
Query :: Returns the measured mass density for the input compound. Input: `CC(C)C(C)C`
Result :: 658.562
